Provenance of the data: patent US20230364029A1

experiment: Solubility measurement of Pattern A in 17 solvent systems (gravimetric); type: physicochemical; details: IPAc, 25 °C, organic solvent or mixture, thermodynamic from solid, gravimetric
Value Type: solubility

# query: solubility of entry "CC1=C(C)C(=O)C(CC[C@@](C)(O)C(N)=O)=C(C)C1=O"
13 mg/mL

* * *

assay: Solubility measurement of Pattern A in 17 solvent systems (gravimetric); type: physicochemical; settings: THF, 25 °C, organic solvent or mixture, thermodynamic from solid, gravimetric
Value Type: solubility
Answer by giving the amount and then stating its unit.

What value of solubility has been recorded for this entry: "CC1=C(C)C(=O)C(CC[C@@](C)(O)C(N)=O)=C(C)C1=O"
28 mg/mL

* * *

assay: Solubility measurement of Pattern A in 17 solvent systems (gravimetric); assay type: physicochemical; details: toluene, 25 °C, organic solvent or mixture, thermodynamic from solid, gravimetric
Value Type: solubility (µg/mL)
The reply should be a number in µg/mL, with the unit left off.

Entry "CC1=C(C)C(=O)C(CC[C@@](C)(O)C(N)=O)=C(C)C1=O" has what solubility?
3000

* * *

system: cells from patients having Leigh Syndrome (Coriell GMOI503A); test: Fibroblast screen similar to Example 12, Leigh Syndrome cells; type: cell-based; settings: Homo sapiens
pEC50: −log10 of the molar value.
Value Type: pEC50

State the recorded pEC50 for this entry: "CC1=C(C)C(=O)C(CC[C@@](C)(O)C(N)=O)=C(C)C1=O"
> 7.00

* * *

assay: Solubility measurement of Pattern A in 17 solvent systems (gravimetric); type: physicochemical; conditions: THF, 50 °C, organic solvent or mixture, thermodynamic from solid, gravimetric
Value Type: solubility (mg/mL)
Reply numerically in mg/mL, unit not repeated.

Data request, read-out solubility, for CC1=C(C)C(=O)C(CC[C@@](C)(O)C(N)=O)=C(C)C1=O [Pattern A]
33

* * *

assay: Solubility measurement of Pattern A in 17 solvent systems (gravimetric); format: physicochemical; conditions: MTBE, 25 °C, organic solvent or mixture, thermodynamic from solid, gravimetric
Value Type: solubility (µg/mL)
Write it as a number; the unit µg/mL goes unstated.

Report solubility for "CC1=C(C)C(=O)C(CC[C@@](C)(O)C(N)=O)=C(C)C1=O" please.
10000

* * *

assay: Solubility measurement of Pattern A in 17 solvent systems (gravimetric); assay type: physicochemical; settings: water, 50 °C, thermodynamic from solid, ^1Water (second water line), gravimetric
Value Type: solubility (mg/mL)
Give just the number in mg/mL; leave the unit off.

Name the reported solubility value associated with the compound "CC1=C(C)C(=O)C(CC[C@@](C)(O)C(N)=O)=C(C)C1=O"
6

* * *

experiment: Solubility measurement of Pattern A in 17 solvent systems (gravimetric); format: physicochemical; conditions: acetone, 50 °C, organic solvent or mixture, thermodynamic from solid, gravimetric
Value Type: solubility (mg/mL)
Express your answer in mg/mL, writing the number without its unit.

For the compound "CC1=C(C)C(=O)C(CC[C@@](C)(O)C(N)=O)=C(C)C1=O" , what solubility is on record?
90

* * *

test: Solubility measurement of Pattern A in 17 solvent systems (gravimetric); assay type: physicochemical; details: MeOH, 25 °C, organic solvent or mixture, thermodynamic from solid, gravimetric
Value Type: solubility

Which value of solubility has been reported for "CC1=C(C)C(=O)C(CC[C@@](C)(O)C(N)=O)=C(C)C1=O" in the records?
> 101 mg/mL

* * *

experiment: Solubility measurement of Pattern A in 17 solvent systems (gravimetric); type: physicochemical; details: MeCN, 25 °C, organic solvent or mixture, thermodynamic from solid, gravimetric
Value Type: solubility (mg/mL)
# value in mg/mL; strip the unit string

Which solubility value belongs to "CC1=C(C)C(=O)C(CC[C@@](C)(O)C(N)=O)=C(C)C1=O" ?
20

* * *

assay: Solubility measurement of Pattern A in 17 solvent systems (gravimetric); type: physicochemical; settings: acetone, 25 °C, organic solvent or mixture, thermodynamic from solid, gravimetric
Value Type: solubility (mg/mL)
Answer in mg/mL, number only, no unit symbol.

Give its solubility value. Item: "CC1=C(C)C(=O)C(CC[C@@](C)(O)C(N)=O)=C(C)C1=O"
39

* * *

test: Solubility measurement of Pattern A in 17 solvent systems (gravimetric); type: physicochemical; conditions: heptane, 25 °C, organic solvent or mixture, thermodynamic from solid, slurry min. 3 days, gravimetric
Value Type: solubility (µg/mL)
Output spec: scalar in µg/mL, unitless text.

What solubility value was documented for this molecule, "CC1=C(C)C(=O)C(CC[C@@](C)(O)C(N)=O)=C(C)C1=O" ?
6000

* * *

test: Solubility measurement of Pattern A in 17 solvent systems (gravimetric); type: physicochemical; conditions: water, 25 °C, thermodynamic from solid, gravimetric
Value Type: solubility (µg/mL)
Value expressed in µg/mL; do not type the unit.

What value of measured solubility is listed for "CC1=C(C)C(=O)C(CC[C@@](C)(O)C(N)=O)=C(C)C1=O" ?
3000

* * *

test: Aqueous solubility (HPLC); assay type: physicochemical; settings: water, thermodynamic from solid, ambient conditions, 24 hours of equilibration
Value Type: solubility at 24 h
Give me the value, and tack the unit on after it.

Reported solubility at 24 h, compound "CC1=C(C)C(=O)C(CC[C@@](C)(O)C(N)=O)=C(C)C1=O" : ____
1740 µg/mL

* * *

test: Solubility measurement of Pattern A in 17 solvent systems (gravimetric); assay type: physicochemical; conditions: IPA, 50 °C, organic solvent or mixture, thermodynamic from solid, gravimetric
Value Type: solubility (mg/mL)
Number in mg/mL, nothing else.

Recorded solubility of "CC1=C(C)C(=O)C(CC[C@@](C)(O)C(N)=O)=C(C)C1=O" , please.
53

* * *

experiment: Aqueous solubility (HPLC); format: physicochemical; conditions: water, ambient conditions, 24 hours of equilibration
Value Type: Solubility (aqueous) (mg/mL)
Write the value in mg/mL as a bare number.

What value of measured Solubility (aqueous) is listed for CC1=C(C)C(=O)C(CC[C@@](C)(O)C(N)=O)=C(C)C1=O [Pattern F] ?
1.36

* * *

assay: Aqueous solubility (HPLC); assay type: physicochemical; conditions: water, ambient conditions, 24 hours of equilibration
Value Type: Solubility (aqueous) (µg/mL)
Lab book: enter the figure in µg/mL, no units written.

Look up Solubility (aqueous): CC1=C(C)C(=O)C(CC[C@@](C)(O)C(N)=O)=C(C)C1=O [Pattern C]
1320

Param item = CC1=C(C)C(=O)C(CC[C@@](C)(O)C(N)=O)=C(C)C1=O [Pattern B] ; retrieve measured Solubility (aqueous).
1300

Reported Solubility (aqueous) for CC1=C(C)C(=O)C(CC[C@@](C)(O)C(N)=O)=C(C)C1=O [Pattern E] : what is it?
1320
